Tested on: OVCAR-5 ovarian
testName: NCI-60 one-dose screen, 48 h (100 = growth as untreated, 0 = no growth, -100 = all killed)
statedConditions: 10 µM
This is part of a sample that, as a whole, favours compounds with a hit. Of some 83,000 tested, about 20% had one in any assay.
quantity: growth (%)
# unit: % | format: bare number

GET /value?item= O=C(N/N=C/c1c(Cl)cccc1Cl)c1ccccc1Nc1cccc(C(F)(F)F)c1 &field=growth returns 105

GET /value?item= COc1ccc(Nc2cnc3cc(NS(=O)(=O)c4ccc(C)cc4)ccc3n2)cc1 &field=growth returns 95.9

GET /value?item= CC(C)(C)c1ccc(S(=O)(=O)Oc2ccc(NC(=O)C3CCCCC3)cc2)cc1 &field=growth returns 85.1

GET /value?item= Cc1cc(NC(=O)c2ccc(C)c(Nc3nccc(-c4cccnc4)n3)c2)cc(-n2cnc(C)c2)c1 &field=growth returns 46

GET /value?item= COc1cc(C(=O)N2CCN(c3cc4c(cc3F)c(=O)c(C(=O)NO)cn4C3CC3)CC2)cc(OC)c1OC &field=growth returns 98.1

GET /value?item= O=S(=O)(NCCCNc1nccc(-c2cn(-c3ccccc3)nc2-c2ccc(Cl)c(O)c2)n1)c1ccccc1 &field=growth returns 118

GET /value?item= NC1=CC(=O)C(=O)c2cccnc21 &field=growth returns 101

GET /value?item= Cc1cn(-c2cc(F)cc(NC(=O)c3ccc(C)c(Nc4nccc(-c5cccnc5)n4)c3)c2)cn1 &field=growth returns 45.2

GET /value?item= COc1ccc(-c2cc(-c3ccc(Cl)cc3)nc(SCCCC(=O)NO)n2)cc1OC &field=growth returns 1.46

GET /value?item= N#CC1=C(N)Oc2cc(N)ccc2C1c1cccnc1 (centres undefined) &field=growth returns 103

GET /value?item= Cc1cc(O)ccc1C1=NN(c2ccc(S(C)(=O)=O)cc2)C(=O)CC1 &field=growth returns 98.1

GET /value?item= O=C(O)COc1c(Cl)cc([N+](=O)[O-])cc1Cl &field=growth returns 95.7

GET /value?item= COC(=O)CC[C@@H](C)[C@H]1CC[C@H]2[C@@H]3CC[C@@H]4C[C@H](O)CC[C@]4(C)[C@H]3C[C@H](O)[C@]12C &field=growth returns 109

GET /value?item= CN1CCc2c(sc3nc4n(-c5ccc(Cl)cc5)c(=O)[nH]n4c(=O)c23)C1 &field=growth returns 115

GET /value?item= CN(C)CCCOc1ccccc1NC1=C(Cl)C(=O)C(Nc2ccccc2OCCCN(C)C)=C(Cl)C1=O &field=growth returns -60.1

GET /value?item= C/C=C/C1=CN2C(=O)c3cc(OC4OC(C)C(NC)C(C)(O)C4O)c(C)c(O)c3N=C[C@@H]2C1 (some centres undefined) &field=growth returns -1.31

GET /value?item= COc1ccc2c(c1)C(CC(=O)NN)CCC2 (centres undefined) &field=growth returns 100

GET /value?item= CC[C@H]1OC(=O)[C@H](C)[C@@H](O[C@H]2C[C@@](C)(OC)[C@@H](O)[C@H](C)O2)[C@H](C)[C@@H](O[C@@H]2O[C@H](C)C[C@H](N(C)C)[C@H]2O)[C@](C)(OC)C/C(C)=C2/O[C@@]1(C)C=C2C &field=growth returns 24.9

GET /value?item= COc1cc(C(=O)/C(C)=C/c2c[nH]c3ccccc23)cc(OC)c1OC &field=growth returns 53.3

* * *

Test system: NCI-H522 lung
testName: NCI-60 one-dose screen, 48 h (100 = growth as untreated, 0 = no growth, -100 = all killed)
statedConditions: 10 µM
About 83,000 compounds went through this panel and 20% of them were active in at least one assay; those are over-represented in the sample as a whole.
quantity: growth (%)
# unit: % | format: bare number

Record for COc1ccc(-c2cc(-c3ccc(Cl)cc3)nc(SCCCC(=O)NO)n2)cc1 under target or system NCI-H522 lung: growth reported as -12.1

Record for CCOC(=O)c1cc(C(=O)c2ccc(F)cc2F)n2ccccc12 under target or system NCI-H522 lung: growth reported as 70.1

Record for Cc1nn(-c2ccccc2)c2nc(Cl)c(C=O)c(-c3ccccc3)c12 under target or system NCI-H522 lung: growth reported as 106

Record for COc1cc(-c2nn(-c3cccc(NC(=O)CN4CCOCC4)c3)cc2-c2cccnc2)ccc1Cl under target or system NCI-H522 lung: growth reported as 49.1

Record for CC[C@@H](C(=O)[C@@H](C)[C@@H](O)[C@H](C)[C@@H]1O[C@@H]([C@@H](CC)C(=O)N(CC)CC)CC[C@@H]1C)C1O[C@]2(C=CC(=O)[C@]3(CC[C@@](C)([C@H]4CC[C@](O)(CC)[C@H](C)O4)O3)O2)[C@H](C)C[C@@H]1C (stereo not given in full) under target or system NCI-H522 lung: growth reported as 8.58

Record for COc1ccc2cc(-c3nc4ccccc4s3)c(Cl)nc2c1OC under target or system NCI-H522 lung: growth reported as 101

Record for CS(=O)(=O)c1nccc(-c2c(-c3cccc(OCc4ccccc4)c3)nc3sccn23)n1 under target or system NCI-H522 lung: growth reported as 5.91

Record for CC(C)(C)OC(=O)CC(S(=O)(=O)c1ccccc1)S(=O)(=O)c1ccccc1 under target or system NCI-H522 lung: growth reported as -36.4

Record for O=C(CSc1nnc(-c2ccc(Cl)cc2)o1)Nc1ccc(C(=O)/C=C/c2ccc(Cl)cc2)cc1 under target or system NCI-H522 lung: growth reported as 86.8

Record for CN(C)CCCOc1ccccc1NC1=C(Cl)C(=O)C(Nc2ccccc2OCCCN(C)C)=C(Cl)C1=O under target or system NCI-H522 lung: growth reported as -67.2

Record for N#CCc1csc(Cc2ccccc2)n1 under target or system NCI-H522 lung: growth reported as 88.9

Record for Cc1cc(=O)n2nnc3cc(C(F)(F)F)ccc3n12 under target or system NCI-H522 lung: growth reported as 97.4

Record for CNC(=O)c1cc(Oc2ccc3c(c2)sc2nc(-c4ccc(NC(=O)Nc5ccc(Cl)c(C(F)(F)F)c5)cc4)cn23)ccn1 under target or system NCI-H522 lung: growth reported as 59

Record for CC(=O)COc1ccc(Cl)cc1Cl under target or system NCI-H522 lung: growth reported as 107

Record for O=C1c2ccccc2C(=O)c2c1ccc(C(Br)Br)c2Cl under target or system NCI-H522 lung: growth reported as -72.9

Record for O=C(O)Cc1ccc(O)c(O)c1 under target or system NCI-H522 lung: growth reported as 106

Record for CN(C)CCCOc1ccc(NC2=C(Cl)C(=O)C(Nc3ccc(OCCCN(C)C)cc3)=C(Cl)C2=O)cc1 under target or system NCI-H522 lung: growth reported as -75.2

Record for O=C(CN1CCN(C(=O)c2ccccc2)CC1)Nc1ccccc1SCc1ccccc1 under target or system NCI-H522 lung: growth reported as 50.9

Record for CN(C)c1ncnc2c1nnn2C1OC(CO)C(O)C1O (stereo not given) under target or system NCI-H522 lung: growth reported as -25.2

Record for COc1ccc(-c2csc(NC(=O)c3ccc(Cc4n[nH]c(=O)c5cccnc45)cc3)n2)cc1 under target or system NCI-H522 lung: growth reported as 80.7

* * *

Test system: LOX IMVI melanoma
testName: NCI-60 one-dose screen, 48 h
statedConditions: 10 µM
The panel holds about 83,000 compounds, 20% with a hit somewhere; the sample as a whole holds those more often. Active and inactive are the calls of the source. Rule for the calls: active = growth percent below 10; inactive = the rest.
Field 'call' accepts active, inactive

Query :: What is the recorded call for this molecule in the test? O=C1CCn2c1c(O)c1ccccc1c2=O
Result :: inactive

Query :: What is the recorded call for this molecule in the test? O=C(CCCCNC(=O)c1nc(-c2ccccc2)n(-c2ccccc2)n1)NO
Result :: inactive

Query :: What is the recorded call for this molecule in the test? Cc1ccc(NCCN(C)CC(C)O)c2c(=O)c3ccc(Cl)cc3sc12 (stereo not given)
Result :: active

Query :: What is the recorded call for this molecule in the test? Nc1ccc(CC[C@H]2CCC/C=C/[C@@H]3C[C@H](O)C[C@H]3[C@H](O)/C=C/C(=O)O2)cc1
Result :: active

Query :: What is the recorded call for this molecule in the test? O=S(=O)(Oc1ccc(-c2ccc3sccc3c2)cc1)c1ccc(F)cc1
Result :: inactive

Query :: What is the recorded call for this molecule in the test? C[C@H]1[C@H](OC(=O)CCC(=O)O)O[C@@H]2O[C@]3(C)CC[C@H]4[C@H](C)CC[C@@H]1[C@@]24OO3
Result :: active

Query :: What is the recorded call for this molecule in the test? CC(C1=C(CN(C(=O)Cc2cn(-c3ccccc3)nc2-c2ccc(Cl)cc2)C(C)C)Cc2ccccc21)c1ccccn1 (stereo not given)
Result :: inactive

Query :: What is the recorded call for this molecule in the test? C[N+]1(CCCCC[N+]2(C)CCCC2)CCCC1
Result :: inactive

Query :: What is the recorded call for this molecule in the test? CCN1C(=O)CC(SC2CC(=O)N(CC)C2=O)C1=O (stereo not given)
Result :: inactive

Query :: What is the recorded call for this molecule in the test? O=[N+]([O-])c1cccc(/C=N/NC(=S)NC23CC4CC(CC(C4)C2)C3)c1
Result :: inactive
